The reader will find reported inhibition at 1 µM values listed item by item below.
TGT: FmlHLD (Escherichia coli)
Construct: 6xHis (C); made in house; host or cells: E. coli C600, periplasm, pTRC99a
TEST: biochemical
Format: binding, E. coli
ASSAY_CONTEXT: read-out: PI(1) (average percent inhibition), compound at 1 μM; Table 4
MEASUREMENT_TYPE: inhibition at 1 µM (%)

1) CCOC(=O)c1ccc(OC)c(-c2ccccc2O[C@@H]2O[C@H](CO)[C@H](O)[C@H](O)[C@H]2NC(C)=O)c1 [AM2053]	13.7
2) CC(=O)N[C@H]1[C@H](Oc2ccc3cnccc3c2)O[C@H](CO)[C@H](O)[C@@H]1O [AM2007]	12.6
3) CC(=O)N[C@H]1[C@H](Oc2cccc3c(C)ccnc23)O[C@H](CO)[C@H](O)[C@@H]1O [AM1192]	16.8
4) CC(=O)N[C@H]1[C@H](Oc2ccccc2-c2cccc(CO)c2)O[C@H](CO)[C@H](O)[C@@H]1O [AM2064]	38.9
5) CC(=O)N[C@H]1[C@H](Oc2cccc3ccc(C)nc23)O[C@H](CO)[C@H](O)[C@@H]1O [AM1179]	25.2
6) CS(=O)(=O)Nc1cccc(-c2ccccc2O[C@@H]2O[C@H](CO)[C@H](O)[C@H](O)[C@H]2O)c1 [AM2043]	49.8
7) COc1cccc(-c2ccccc2O[C@@H]2O[C@H](CO)[C@H](O)[C@H](O)[C@H]2NC(C)=O)c1 [AM2029]	15.5

* * *

TGT: FmlHLD (Escherichia coli, UniProt P77588)
Construct: 6xHis (C); made in house; host or cells: E. coli C600, periplasm, pTRC99a
Sequence (P77588 25-182): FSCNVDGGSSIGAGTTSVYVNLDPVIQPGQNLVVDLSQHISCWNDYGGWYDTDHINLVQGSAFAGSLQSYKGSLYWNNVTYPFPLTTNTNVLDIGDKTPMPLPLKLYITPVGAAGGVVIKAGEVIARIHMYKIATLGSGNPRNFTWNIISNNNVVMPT
TEST: biochemical
Type: binding, E. coli
ASSAY_CONTEXT: read-out: % Inhibition at [μM] [100], compound at 100 μM; inhibition of FmlHLD binding to ds-BSM
MEASUREMENT_TYPE: inhibition at 100 µM (%)

1. O=[N+]([O-])c1ccc(S[C@@H]2O[C@H](CO)[C@H](O)[C@H](O)[C@H]2O)cc1 [PNPTG, reference compound]	72.5
2. OC[C@H]1O[C@@H](Oc2c[nH]c3ccccc23)[C@H](O)[C@@H](O)[C@H]1O [3-indoxyl Gal, reference compound]	21.7
3. OC[C@H]1O[C@@H](Oc2ccccc2)[C@H](O)[C@@H](O)[C@H]1O [Phenyl Gal, reference compound]	76.9
4. O=C(O)c1cccc(-c2ccccc2O[C@H]2O[C@H](CO)[C@H](O)[C@H](O)[C@H]2O)c1 [Compound 200a]	26.2
5. OC[C@H]1O[C@H](Oc2ccc(-c3ccccc3)cc2)[C@H](O)[C@@H](O)[C@H]1O	86.5

* * *

TGT: FmlHLD (Escherichia coli, UniProt P77588)
Construct: 6xHis (C); made in house; host or cells: E. coli C600, periplasm, pTRC99a
TEST: biochemical
Assay type: binding, E. coli
ASSAY_CONTEXT: Kd (μM), inhibitory constants, fixed FmlHLD, varying galactoside in solution, immobilized ser-TF
MEASUREMENT_TYPE: Kd (µM)

1) CC(=O)N[C@H]1[C@H](Oc2ccccc2-c2cccc(C(=O)O)c2)O[C@H](CO)[C@H](O)[C@@H]1O	0.089
2) O=[N+]([O-])c1ccccc1O[C@@H]1O[C@H](CO)[C@H](O)[C@H](O)[C@H]1O [4β (ONPG), reference compound]	10.6
3) CC(=O)N[C@@H]1[C@@H](O[C@@H]2O[C@H](CO)[C@H](O)[C@H](O)[C@H]2O)[C@H](O)[C@@H](CO)O[C@@H]1O [Gal-β1-GalNAc, reference compound]	248
4) OC[C@H]1O[C@@H](Oc2cccc3cccnc23)[C@H](O)[C@@H](O)[C@H]1O	7.1
5) COc1ccccc1O[C@@H]1O[C@H](CO)[C@H](O)[C@H](O)[C@H]1O [Compound 5β, 2-methoxyphenyl β-D-galactopyranoside]	6.5
6) CC(=O)N[C@@H]1[C@@H](O)[C@@H](O)[C@@H](CO)O[C@H]1O (stereo in doubt) [GalNAc, N-acetylgalactosamine, reference compound]	189
7) CC(=O)N[C@H]1[C@H](Oc2ccccc2[N+](=O)[O-])O[C@H](CO)[C@H](O)[C@@H]1O	2.3

* * *

TGT: FmlH lectin domain (FmlH^LD; first 182 amino acids of CFT073 FmlH = signal sequence and lectin domain, C-terminal 6×-his tag, wild-type, biotinylated) (Escherichia coli)
Construct: biotinylated for ELISA; wild type
Sequence (A0A0H2V7F6 entry or part of it): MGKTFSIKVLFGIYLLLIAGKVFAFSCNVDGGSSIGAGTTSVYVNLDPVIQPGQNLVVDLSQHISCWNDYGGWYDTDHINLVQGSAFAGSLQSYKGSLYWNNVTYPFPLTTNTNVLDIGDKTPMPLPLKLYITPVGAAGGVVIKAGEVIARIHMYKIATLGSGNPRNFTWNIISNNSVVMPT
TEST: ELISA-based competition assay: inhibition of biotinylated FmlH lectin domain binding to surface-immobilized desialylated bovine submaxillary mucin (ds-BSM)
ASSAY_CONTEXT: read-out: FmlH (FmlH^LD) lectin domain (LD) IC50, FIG. 14, 20 μg/mL biotinylated FmlH^LD, compounds serially diluted 2×, 1 hour at room temperature, ds-BSM coated wells, absorbance 450 nm
pIC50: −log10 of the molar value.
MEASUREMENT_TYPE: pIC50

1. CC(=O)N[C@H]1[C@H](Oc2ccccc2-c2cccc(C(=O)O)c2)O[C@H](CO)[C@H](O)[C@@H]1O	6.19

* * *

TGT: FmlHLD (Escherichia coli, UniProt P77588)
Construct: 6xHis (C); made in house; host or cells: E. coli C600, periplasm, pTRC99a
TEST: biochemical
Format: binding, E. coli
ASSAY_CONTEXT: read-out: PI100 (percent inhibition), galactoside at 100 μM; mean with standard error of the mean
The reader will find reported inhibition at 100 µM values listed item by item below.
MEASUREMENT_TYPE: inhibition at 100 µM (%)

1. N#Cc1ccc(O[C@@H]2O[C@H](CO)[C@H](O)[C@H](O)[C@H]2O)cc1 [Compound 9β, 4-cyanophenyl β-D-galactopyranoside]	86
2. CC(C)S[C@@H]1O[C@H](CO)[C@H](O)[C@H](O)[C@H]1O [36β-thio (IPTG), reference compound]	23.7
3. CC(=O)N[C@@H]1[C@@H](O[C@@H]2O[C@H](CO)[C@H](O)[C@H](O)[C@H]2O)[C@@H](O)[C@@H](CO)O[C@@H]1O [TF, Gal-β1-3-GalNAc-α, reference compound]	15.5

* * *

The reader will find reported inhibition at 1 µM values listed item by item below.
TGT: FmlHLD (Escherichia coli)
Construct: 6xHis (C); made in house; host or cells: E. coli C600, periplasm, pTRC99a
TEST: biochemical
Assay type: binding, E. coli
ASSAY_CONTEXT: read-out: PI(1) (average percent inhibition), compound at 1 μM; Table 4
MEASUREMENT_TYPE: inhibition at 1 µM (%)

1) COC(=O)Nc1cccc(-c2ccccc2O[C@@H]2O[C@H](CO)[C@H](O)[C@H](O)[C@H]2NC(C)=O)c1	45.3
2) CC(=O)N[C@H]1[C@H](Oc2ccc3ncccc3c2)O[C@H](CO)[C@H](O)[C@@H]1O	7.56
3) O=C(O)c1cc(-c2ccccc2O[C@@H]2O[C@H](CO)[C@H](O)[C@H](O)[C@H]2O)cc([N+](=O)[O-])c1	68
4) CC(=O)N[C@H]1[C@H](Oc2ccc3cccnc3c2)O[C@H](CO)[C@H](O)[C@@H]1O	15.4

* * *

The reader will find reported inhibition at 100 µM values listed item by item below.
TGT: FmlHLD (Escherichia coli)
Construct: 6xHis (C); made in house; host or cells: E. coli C600, periplasm, pTRC99a
TEST: biochemical
Format: binding, E. coli
ASSAY_CONTEXT: read-out: PI100 (percent inhibition), galactoside at 100 μM; mean with standard error of the mean
MEASUREMENT_TYPE: inhibition at 100 µM (%)

1. Cc1c(C)c2ccc(O[C@@H]3O[C@H](CO)[C@H](O)[C@H](O)[C@H]3O)cc2oc1=O	89
2. OC[C@H]1O[C@@H](Oc2cccc3ccccc23)[C@H](O)[C@@H](O)[C@H]1O [Compound 18β, 1-naphthalenyl α/β-D-galactopyranoside]	46
3. OC[C@H]1O[C@@H](SCCc2ccccc2)[C@H](O)[C@@H](O)[C@H]1O	49.8
4. OC[C@H]1O[C@@H](Oc2c[nH]c3cc(Cl)ccc23)[C@H](O)[C@@H](O)[C@H]1O	41
5. OC[C@H]1O[C@H](Oc2ccc(-c3ccccc3)cc2)[C@H](O)[C@@H](O)[C@H]1O	86.5
6. OC[C@H]1O[C@H](Oc2cccc(-c3ccccc3)c2)[C@H](O)[C@@H](O)[C@H]1O	45.6
7. OC[C@H]1O[C@@H](Oc2ccccc2-c2ccccc2)[C@H](O)[C@@H](O)[C@H]1O	91
8. OC[C@H]1O[C@@H](Oc2ccccc2Cl)[C@H](O)[C@@H](O)[C@H]1O [Compound 6β, 2-chlorophenyl β-D-galactopyranoside]	90
9. N#Cc1ccccc1O[C@@H]1O[C@H](CO)[C@H](O)[C@H](O)[C@H]1O [Compound 3β, 2-cyanophenyl α/β-D-galactopyranoside]	95
10. Cc1ccccc1O[C@H]1O[C@H](CO)[C@H](O)[C@H](O)[C@H]1O [Compound 2α, 2-Methylphenyl α/β-D-Galactopyranoside]	30
11. OC[C@H]1O[C@@H](Oc2ccc3ccccc3c2)[C@H](O)[C@@H](O)[C@H]1O	79
12. COc1cc(OC)cc(O[C@@H]2O[C@H](CO)[C@H](O)[C@H](O)[C@H]2O)c1	76
13. OC[C@H]1O[C@H](Oc2cccc3ccccc23)[C@H](O)[C@@H](O)[C@H]1O [Compound 18α, 1-naphthalenyl α/β-D-galactopyranoside]	28.1
14. OC[C@H]1O[C@@H](Oc2c[nH]c3ccccc23)[C@H](O)[C@@H](O)[C@H]1O	22
